- ASSAY SUMMARY: Lipophilicity assay (octanol/buffer)
- Assay type: physicochemical
- RUN CONDITIONS: n-octanol / 10 mM sodium phosphate buffer pH 7.4, LC-UV
Categories are defined by ranges of logD, namely low value (below 0.8), medium value (0.8 to below 2), high value (2 or more)

[
  {
    "COMPOUND": "COCCn1c(-c2ccncc2)nc2ccc(NC(=O)Nc3cccc(C(C)=O)c3)cc2c1=O",
    "CLASS ASSIGNMENT": "low value"
  },
  {
    "COMPOUND": "COCC(C)n1cnc2ccc(NC(=O)Nc3cccc(C(C)=O)c3)cc2c1=O (stereo not shown)",
    "CLASS ASSIGNMENT": "medium value"
  },
  {
    "COMPOUND": "COCCn1c(C2CCCCC2)nc2ccc(NC(=O)Nc3cccc(C(C)=O)c3)cc2c1=O",
    "CLASS ASSIGNMENT": "medium value"
  },
  {
    "COMPOUND": "COCCn1c(-c2ccccn2)nc2ccc(NC(=O)Nc3cccc(C(C)=O)c3)cc2c1=O",
    "CLASS ASSIGNMENT": "high value"
  },
  {
    "COMPOUND": "CC(=O)c1cccc(NC(=O)Nc2ccc3ncn(CC(=O)Nc4ccccc4F)c(=O)c3c2)c1",
    "CLASS ASSIGNMENT": "high value"
  },
  {
    "COMPOUND": "COCCn1c(C(=O)N2CCCCC2)nc2ccc(NC(=O)Nc3cccc(C(C)=O)c3)cc2c1=O [Compound 330a]",
    "CLASS ASSIGNMENT": "medium value"
  },
  {
    "COMPOUND": "COCCn1c(-c2cccnc2)nc2ccc(NC(=O)Nc3cccc(C(C)=O)c3)cc2c1=O",
    "CLASS ASSIGNMENT": "low value"
  },
  {
    "COMPOUND": "COCCn1c(CN2CCCCC2)nc2ccc(NC(=O)Nc3cccc(C(C)=O)c3)cc2c1=O",
    "CLASS ASSIGNMENT": "medium value"
  },
  {
    "COMPOUND": "CC(=O)c1cccc(NC(=O)Nc2ccc3ncn(CCCN4CCOCC4)c(=O)c3c2)c1",
    "CLASS ASSIGNMENT": "low value"
  }
]
